System: CP237
Procedure Details: qHTS profiling for inhibitors of Plasmodium falciparum proliferation (AID 504749); further: nearly all actives have a fitted effect of over 60% in size
Conditions: P. falciparum in erythrocytes, SYBR Green DNA, 72 h; series mostly up to 28.7 µM
Records with an inconclusive call do not appear. Active and inactive are the calls of the source. The call rests on the fitted dose curve; in most records, active means well fitted inhibition curve with a large enough effect; inconclusive means small, poorly fitted or top-dose-only effect; inactive means flat fitted curve, though single readings scatter.
Lab note: assign the record to one of active, inactive

Look over these answered cases.
Compound	Label Class
CC(=O)NC(Cc1ccccc1)C(=O)O (stereo unspecified)	inactive
C#CCN(C)Cc1ccccc1	inactive
O=c1cc(CO)occ1O	inactive
C[C@]12C[C@H](O)[C@H]3[C@@H](CCC4=CC(=O)CC[C@@]43C)[C@@H]1CC[C@@H]2C(=O)CO	inactive
CC1=C(/C=C/C(C)=C/C=C/C(C)=C/C(=O)O)C(C)(C)CCC1	inactive
CCOC(=O)[C@H](CCc1ccccc1)N[C@@H](C)C(=O)N1C(=O)N(C)C[C@H]1C(=O)O	inactive
CCCCCCCCCCCCCCCCCCOCC(O)CO (stereo unspecified)	inactive
NCCNCCNCCN	inactive

input: Hi, sorry to bother you, what did the test record for CCCc1c(OCCCCc2nn[nH]n2)ccc(C(C)=O)c1O ?
output: inactive

input: Hi, sorry to bother you, what did the test record for O=C1NS(=O)(=O)c2ccccc21 ?
output: inactive

input: Hi, sorry to bother you, what did the test record for CNCCC(Oc1ccc(C(F)(F)F)cc1)c1ccccc1 (stereo unspecified) ?
output: inactive

input: Hi, sorry to bother you, what did the test record for C[C@@H]1CN(c2c(F)c(F)c3c(=O)c(C(=O)O)cn(C4CC4)c3c2F)C[C@H](C)N1 ?
output: inactive

input: Hi, sorry to bother you, what did the test record for C[C@H]1O[C@@H](n2cc(F)c(=O)[nH]c2=O)[C@H](O)[C@@H]1O ?
output: inactive

input: Hi, sorry to bother you, what did the test record for O=C(O)COc1nn(Cc2ccccc2)c2ccccc12 ?
output: inactive

input: Hi, sorry to bother you, what did the test record for OCC(O)CN1CCN(c2ccccc2)CC1 (stereo unspecified) ?
output: inactive

input: Hi, sorry to bother you, what did the test record for CCCCC(CC)COC(=O)c1ccccc1O (stereo unspecified) ?
output: inactive
